B1: glmS ribozyme (parent)
chain: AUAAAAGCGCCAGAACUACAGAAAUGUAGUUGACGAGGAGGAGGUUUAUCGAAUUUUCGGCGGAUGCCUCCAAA

Variants of: B1
test summary: self-cleavage kobs at 10000 uM GlcN6P; higher = faster cleavage; RNA array
recorded conditions: with glucosamine-6-phosphate
This sample holds only a part of the variants without activity.
Each item that follows carries a reported self-cleavage kobs at 10000 uM GlcN6P.
A number alone suffices; assume s⁻¹.

# annotated cases, reported self-cleavage kobs at 10000 uM GlcN6P shown
INSERT INTO assay_data (mutation_code, recorded_measurement) VALUES
  ('A6G C68U', 0.000107),
  ('C50U C70U', '4.51e-05'),
  ('U30G A53U', 0.00788),
  ('G40U A53G', 0.0062),
  ('G44A U47G', 0.000111);

Entry C11U A52G G63C U69G has what self-cleavage kobs at 10000 uM GlcN6P? 8.28e-05

Same question for A12C G40A please. 0.00569

Likewise for C16A U54G ? 0.00141

Try this variant too: G29C U56G 0.00181

Likewise for G41A U45C A53U ? 0.000355

Try this variant too: C11A A42G U56A 7.2e-05

Same thing, different variant: U46A C71U 0.00319

Try C11A C67U next. 4.17e-05

What about this variant? U45C C67U 0.00337

And the next one, U47C G66A ? 0.00183
